Attribution: the supplement of paper PMC10567573

Overview of reported protein stability index across a group of variants:
B1: MNAT1 (parent)
chain: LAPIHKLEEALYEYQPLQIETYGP

Variants of: B1
assayText: protein stability index of a GFP-peptide fusion (GPS, HEK-293T) (PSI 1-6); higher = more stable;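 note: lentivirally expressed fusions sorted by FACS into six bins by GFP to DsRed ratio, PSI derived from sequencing read proportions per bin multiplied by bin number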
particulars: c terminus: a fixed tail appended
measureName: protein stability index

>>> resultvalue("A10Q")
2.42
>>> resultvalue("Q15S")
2.07
>>> resultvalue("P16H")
2.43
>>> resultvalue("G23F")
1.92
>>> resultvalue("L17C")
2.51
>>> resultvalue("L11Y")
2.42
>>> resultvalue("A2S")
2.29
>>> resultvalue("L11I")
2.3
>>> resultvalue("K6D")
1.94
>>> resultvalue("E9Q")
1.91
>>> resultvalue("I4L")
2.04
>>> resultvalue("I19D")
4.07
>>> resultvalue("E13A")
1.53
>>> resultvalue("A2V")
2.54
>>> resultvalue("Q15G")
1.52
>>> resultvalue("Q18I")
1.94
>>> resultvalue("I19K")
2.99
>>> resultvalue("P16F")
1.44
>>> resultvalue("P3H")
1.87
>>> resultvalue("Y14N")
2.99
>>> resultvalue("K6G")
1.9
>>> resultvalue("Y22F")
3.02
>>> resultvalue("Q15N")
1.83
>>> resultvalue("A2T")
2.63
>>> resultvalue("Q15R")
2.03
>>> resultvalue("Y12C")
1.82
>>> resultvalue("P3I")
2.72
>>> resultvalue("L7Y")
2.85
>>> resultvalue("A2E")
2.47
>>> resultvalue("A10K")
2.52
>>> resultvalue("A2K")
1.92
>>> resultvalue("L17D")
3.96
>>> resultvalue("K6E")
2.27
>>> resultvalue("L7N")
2.72
>>> resultvalue("A10D")
2.91
>>> resultvalue("E13S")
1.58
>>> resultvalue("P16Q")
1.97
>>> resultvalue("P24H")
1.58
>>> resultvalue("P16C")
2.06
>>> resultvalue("I4E")
2.78
>>> resultvalue("K6N")
2.27
>>> resultvalue("Y22N")
2.74
>>> resultvalue("L7Q")
2.97
>>> resultvalue("K6Y")
2.1
>>> resultvalue("A2F")
3.4
>>> resultvalue("E13H")
2.7
>>> resultvalue("E8F")
3.18
>>> resultvalue("E9P")
2.25
>>> resultvalue("L7P")
3.29
>>> resultvalue("P24M")
1.25
>>> resultvalue("I4Q")
2.7
>>> resultvalue("L17R")
3.57
>>> resultvalue("E13G")
2.37
>>> resultvalue("E9R")
1.91
>>> resultvalue("A2L")
2.93
>>> resultvalue("E20G")
1.98
>>> resultvalue("P3L")
2.95
>>> resultvalue("I4S")
2.3
>>> resultvalue("G23R")
1.15
>>> resultvalue("H5M")
1.71
>>> resultvalue("T21P")
2.46
